- ASSAY_SYSTEM: Total mGluR
- ASSAY_DETAILS: L-[3H]glutamate radioligand binding in intact cortical neurons
- Design: species or system rat
- SETTINGS: neurons exposed to 25 µM for 24 h
Where no end group is shown, it is not given here.
ENDPOINT_LABEL: Kd (µM)

>>> value_reported("GSNKGAIIGLM [Aβ25-35]")
1.61

----------
- ASSAY_SYSTEM: A1R (Rattus norvegicus, UniProt P25099)
- Construct: endogenous in cells; host or cells: rat primary cortical neurons (intact)
- Sequence (P25099 1-326): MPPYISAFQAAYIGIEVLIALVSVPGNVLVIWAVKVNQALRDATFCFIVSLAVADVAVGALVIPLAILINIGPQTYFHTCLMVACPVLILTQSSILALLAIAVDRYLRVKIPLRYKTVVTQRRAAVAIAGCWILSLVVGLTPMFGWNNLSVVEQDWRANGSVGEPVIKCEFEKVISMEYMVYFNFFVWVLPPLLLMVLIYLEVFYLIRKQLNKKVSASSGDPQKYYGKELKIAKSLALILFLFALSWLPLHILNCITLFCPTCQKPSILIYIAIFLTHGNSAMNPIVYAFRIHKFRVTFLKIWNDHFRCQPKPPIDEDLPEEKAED
- ASSAY_DETAILS: [3H]DPCPX radioligand binding in intact cortical neurons
- SETTINGS: neurons exposed to 25 µM for 48 h
pKd: −log10 of the molar value. Where no end group is shown, it is not given here.
ENDPOINT_LABEL: pKd

>>> value_reported("GSNKGAIIGLM [Aβ25-35]")
8.26
